Values from ChEMBL document CHEMBL3991601

molecular target: Tyrosine-protein kinase Fer (Homo sapiens); also: in the data inactive means no Kd found up to 30 µM
Sequence (P16591 whole entry): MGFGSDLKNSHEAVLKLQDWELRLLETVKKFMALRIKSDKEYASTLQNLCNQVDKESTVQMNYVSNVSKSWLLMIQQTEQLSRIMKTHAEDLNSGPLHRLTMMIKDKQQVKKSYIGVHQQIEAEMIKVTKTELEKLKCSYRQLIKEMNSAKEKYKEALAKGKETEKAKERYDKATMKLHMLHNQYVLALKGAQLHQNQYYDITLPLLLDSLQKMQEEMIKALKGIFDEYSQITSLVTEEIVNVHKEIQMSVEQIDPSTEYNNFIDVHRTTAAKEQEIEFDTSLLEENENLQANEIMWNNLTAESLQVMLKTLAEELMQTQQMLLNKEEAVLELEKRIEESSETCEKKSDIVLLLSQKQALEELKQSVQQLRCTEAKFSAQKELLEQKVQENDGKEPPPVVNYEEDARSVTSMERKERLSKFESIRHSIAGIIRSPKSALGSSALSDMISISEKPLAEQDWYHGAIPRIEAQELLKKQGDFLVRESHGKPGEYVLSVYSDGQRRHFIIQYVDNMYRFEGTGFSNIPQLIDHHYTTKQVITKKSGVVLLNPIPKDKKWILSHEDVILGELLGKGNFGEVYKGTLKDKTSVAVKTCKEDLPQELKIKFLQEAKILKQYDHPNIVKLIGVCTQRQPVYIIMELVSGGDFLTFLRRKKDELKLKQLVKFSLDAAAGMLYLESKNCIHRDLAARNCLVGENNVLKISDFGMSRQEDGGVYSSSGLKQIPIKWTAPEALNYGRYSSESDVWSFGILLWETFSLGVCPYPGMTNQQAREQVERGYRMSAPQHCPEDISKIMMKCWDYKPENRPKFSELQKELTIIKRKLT
Where a name gives a salt, the structure may show the parent alone. Activity calls are given as the source filed them.
OUTCOME_MEASURE: Kd

Some entries whose results are on file:
# COMPOUND, OUTCOME_MEASURE, VAL
measured = [
    ("Cc1cnc(NC(=O)Nc2cc(Br)c(C)cc2OC[C@@H]2CNCCO2)cn1", "Kd", "> 30 µM (inactive)"),
    ("Cn1ncc(Cl)c1-c1cc(C(=O)N[C@H](CN)Cc2ccc(F)c(F)c2)oc1Cl", "Kd", "> 30 µM (inactive)"),
    ("C#Cc1cccc(Nc2ncnc3cc(OC)c(OCCCCCCC(=O)NO)cc23)c1", "Kd", "> 30 µM (inactive)"),
]

We next turn to a different compound, shown below.
With Tyrosine-protein kinase Fer (Homo sapiens) as the test system, CCS(=O)(=O)N1CCN(c2ccc(Nc3ncc(C(N)=O)c(NC4CC4)n3)cc2)CC1 [Cerdulatinib Hydrochloride] showed Kd of > 30 µM (inactive)

---

biological target: UniProtKB P41240
Sequence (P41240 whole entry): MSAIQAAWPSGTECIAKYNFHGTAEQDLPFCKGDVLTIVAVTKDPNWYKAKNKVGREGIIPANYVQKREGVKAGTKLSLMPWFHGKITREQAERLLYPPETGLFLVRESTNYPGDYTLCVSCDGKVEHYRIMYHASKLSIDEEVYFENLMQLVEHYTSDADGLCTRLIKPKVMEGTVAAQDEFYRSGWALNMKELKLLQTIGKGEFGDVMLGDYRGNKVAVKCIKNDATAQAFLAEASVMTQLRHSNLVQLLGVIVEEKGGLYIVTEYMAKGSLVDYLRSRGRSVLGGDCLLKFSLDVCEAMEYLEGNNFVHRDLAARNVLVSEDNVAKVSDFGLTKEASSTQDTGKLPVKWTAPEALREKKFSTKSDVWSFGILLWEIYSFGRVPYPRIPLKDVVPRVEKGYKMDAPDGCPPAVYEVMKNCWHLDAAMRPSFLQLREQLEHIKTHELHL
The source made the active and inactive calls.
Thanks in advance; please answer with one of these: label 1 = active, label 0 = inactive

These recorded examples may help you get a feel for the data.
# COMPOUND, ASSAY_TARGET, CLASS_ASSIGNMENT
records = [
    ("CO[C@H]1C[C@@H]2CC[C@@H](C)[C@@](O)(O2)C(=O)C(=O)N2CCCC[C@H]2C(=O)O[C@H]([C@H](C)C[C@@H]2CC[C@@H](OC(=O)C(C)(CO)CO)[C@H](OC)C2)CC(=O)[C@H](C)/C=C(\\C)[C@@H](O)[C@@H](OC)C(=O)[C@H](C)C[C@H](C)/C=C/C=C/C=C/1C", "UniProtKB P41240", "label 0"),
    ("N#CC1(c2ccc(NC(=O)c3cccnc3NCc3ccncc3)cc2)CCCC1", "UniProtKB P41240", "label 0"),
    ("Cn1cc(-c2cnn3c(N)c(Br)c([C@@H]4CCCNC4)nc23)cn1", "UniProtKB P41240", "label 0"),
    ("Nc1ncnc2c1c(-c1cccc(OCc3ccccc3)c1)cn2[C@H]1C[C@@H](CN2CCC2)C1", "UniProtKB P41240", "label 0"),
    ("C[C@H]1CNCCCN1S(=O)(=O)c1cccc2cncc(F)c12", "UniProtKB P41240", "label 0"),
]

-- ask I'd appreciate the recorded outcome for `CNC(=O)c1cccc2cc(Oc3ccnc4cc(OCC5(N)CC5)c(OC)cc34)ccc12` from this test.
-- reply label 0

-- ask For `CCCCCCCCCCCCCCCCCCOP(=O)([O-])OC1CC[N+](C)(C)CC1` , what call appears in the results of this test?
-- reply label 0

-- ask For Cc1[nH]c(/C=C2\C(=O)Nc3ccccc32)c(C)c1CCC(=O)O [ORANTINIB] , which call appears in the assay record?
-- reply label 0

-- ask What call does the record list for `CO[C@H]1C[C@@H]2CC[C@@H](C)[C@@](O)(O2)C(=O)C(=O)N2CCCC[C@H]2C(=O)O[C@H]([C@H](C)C[C@@H]2CC[C@@H](O)[C@H](OC)C2)CC(=O)[C@H](C)/C=C(\C)[C@@H](O)[C@@H](OC)C(=O)[C@H](C)C[C@H](C)/C=C/C=C/C=C/1C` ?
-- reply label 0

-- ask Which result was noted for this compound in the test: `COc1cc2ncnc(Oc3cccc(NC(=O)Nc4cc(C(C)(C)C(F)(F)F)on4)c3)c2cc1OC`
-- reply label 0

-- ask Record lookup: outcome of this test for `CNC(=O)c1nn(C)c2c1C(C)(C)Cc1cnc(Nc3ccc(N4CCN(C)CC4)cc3)nc1-2` ?
-- reply label 0

-- ask Answer briefly: the call reported for `CC(C)c1cc(CNc2nc(Nc3cc(C4CC4)[nH]n3)cc(N3CCN(C)CC3)n2)on1` in this assay.
-- reply label 0

-- ask Can you look up the reported call for `CNC(=O)c1cc(Oc2ccc(NC(=O)Nc3cc(C(C)(C)C)nn3-c3ccc4ncccc4c3)c(F)c2)ccn1` for me?
-- reply label 1

-- ask What outcome does the record of this test show for `C[C@@H](N)c1ccc(C(=O)Nc2ccnc3[nH]ccc23)cc1` ?
-- reply label 0

---

target: Adenine phosphoribosyltransferase (Homo sapiens, UniProt P07741); also: in the data inactive means no Kd found up to 30 µM
Sequence (P07741 whole entry): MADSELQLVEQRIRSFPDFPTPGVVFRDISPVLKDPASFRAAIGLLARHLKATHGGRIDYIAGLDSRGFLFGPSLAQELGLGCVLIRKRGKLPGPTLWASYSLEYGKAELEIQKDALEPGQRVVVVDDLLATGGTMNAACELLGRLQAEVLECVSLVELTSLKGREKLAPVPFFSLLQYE
Active and inactive are the calls of the source.
The reader will find reported Kd values listed item by item below.

# COMPOUND, Kd
measured = [
    ("C[C@@H](Oc1cc(-n2cnc3ccc(CN4CCN(C)CC4)cc32)sc1C(N)=O)c1ccccc1C(F)(F)F [GSK-461364]", "> 30 µM (inactive)"),
    ("COc1ncc(-c2ccc3nccc(-c4ccnnc4)c3c2)cc1NS(=O)(=O)c1ccc(F)cc1F [OMIPALISIB]", "> 30 µM (inactive)"),
    ("NC(=O)c1c(OCc2c(F)cc(Br)cc2F)nsc1NC(=O)NCCCCN1CCCC1 [OSI-632]", "> 30 µM (inactive)"),
    ("COc1c(OCCCN2CCOCC2)ccc2c1N=C(NC(=O)c1cnc(N)nc1)N1CCN=C21 [COPANLISIB]", "> 30 µM (inactive)"),
]

Log: Adenine phosphoribosyltransferase (Homo sapiens, UniProt P07741), compound O=c1[nH]ccc2cc(OC3CCNCC3)ccc12 [SAR-407899 FREE BASE] , Kd = > 30 µM (inactive)

Entry Cc1nc(NC(=O)N2CCC[C@H]2C(N)=O)sc1-c1ccnc(C(C)(C)C(F)(F)F)c1 [ALPELISIB] , Adenine phosphoribosyltransferase (Homo sapiens, UniProt P07741) data, Kd value: > 30 µM (inactive)

Value sought: Kd, system Adenine phosphoribosyltransferase (Homo sapiens, UniProt P07741), item Cn1cnc2c(F)c(Nc3ccc(Br)cc3F)c(C(=O)NOCCO)cc21 [BINIMETINIB] . Result: > 30 µM (inactive)

Value sought: Kd, system Adenine phosphoribosyltransferase (Homo sapiens, UniProt P07741), item Cc1cc(C(=O)NOCCO)c(Nc2ccc(I)cc2F)n(C)c1=O [AZD-8330] . Result: > 30 µM (inactive)

Query CNC(=O)c1cccc2cc(Oc3ccnc4cc(OCC5(N)CC5)c(OC)cc34)ccc12 [LUCITANIB] on Adenine phosphoribosyltransferase (Homo sapiens, UniProt P07741); Kd returned: > 30 µM (inactive)

Form: item Cc1nc2cc(-n3ncc(C(=O)c4cc5ccccc5[nH]4)c3N)ccc2[nH]1 [FGFR INHIBITOR DEBIO 1347] ; test system Adenine phosphoribosyltransferase (Homo sapiens, UniProt P07741); Kd: > 30 µM (inactive)

Field Kd (Adenine phosphoribosyltransferase (Homo sapiens, UniProt P07741)), entry O=C1NC(=O)[C@@H](c2cn3c4c(cccc24)CCC3)[C@@H]1c1c[nH]c2ccccc12 [TIVANTINIB] : > 30 µM (inactive)

Kindly note: Adenine phosphoribosyltransferase (Homo sapiens, UniProt P07741), C[C@@H](NC(=O)c1ncnc(N)c1Cl)c1ncc(C(=O)Nc2cc(C(F)(F)F)c(Cl)cn2)s1 [TOVORAFENIB] , Kd value reported: > 30 µM (inactive)

Simply: COc1cc2c(Nc3ccc(Cl)c(Cl)c3F)ncnc2cc1OC[C@@H]1C[C@@H]2CN(C)C[C@@H]2C1 [TESEVATINIB] , Adenine phosphoribosyltransferase (Homo sapiens, UniProt P07741), Kd = > 30 µM (inactive)

Summary: COc1cc2ncnc(Oc3cccc(NC(=O)Nc4cc(C(C)(C)C(F)(F)F)on4)c3)c2cc1OC [CEP-32496] , Adenine phosphoribosyltransferase (Homo sapiens, UniProt P07741), Kd = > 30 µM (inactive)

Summary line: Cc1csc(-c2nnc(Nc3ccc(Oc4ncccc4-c4ccnc(N)n4)cc3)c3ccccc23)c1 [AMG-900] , Adenine phosphoribosyltransferase (Homo sapiens, UniProt P07741), reported Kd = > 30 µM (inactive)

Field Kd (system: Adenine phosphoribosyltransferase (Homo sapiens, UniProt P07741)) for entry Cc1cnc(NC(=O)Nc2cc(Br)c(C)cc2OC[C@@H]2CNCCO2)cn1 [RABUSERTIB] = > 30 µM (inactive)

---

target: Serine/threonine-protein kinase B-raf (Homo sapiens, UniProt P15056); also: in the data inactive means no Kd found up to 30 µM
Sequence (P15056 whole entry): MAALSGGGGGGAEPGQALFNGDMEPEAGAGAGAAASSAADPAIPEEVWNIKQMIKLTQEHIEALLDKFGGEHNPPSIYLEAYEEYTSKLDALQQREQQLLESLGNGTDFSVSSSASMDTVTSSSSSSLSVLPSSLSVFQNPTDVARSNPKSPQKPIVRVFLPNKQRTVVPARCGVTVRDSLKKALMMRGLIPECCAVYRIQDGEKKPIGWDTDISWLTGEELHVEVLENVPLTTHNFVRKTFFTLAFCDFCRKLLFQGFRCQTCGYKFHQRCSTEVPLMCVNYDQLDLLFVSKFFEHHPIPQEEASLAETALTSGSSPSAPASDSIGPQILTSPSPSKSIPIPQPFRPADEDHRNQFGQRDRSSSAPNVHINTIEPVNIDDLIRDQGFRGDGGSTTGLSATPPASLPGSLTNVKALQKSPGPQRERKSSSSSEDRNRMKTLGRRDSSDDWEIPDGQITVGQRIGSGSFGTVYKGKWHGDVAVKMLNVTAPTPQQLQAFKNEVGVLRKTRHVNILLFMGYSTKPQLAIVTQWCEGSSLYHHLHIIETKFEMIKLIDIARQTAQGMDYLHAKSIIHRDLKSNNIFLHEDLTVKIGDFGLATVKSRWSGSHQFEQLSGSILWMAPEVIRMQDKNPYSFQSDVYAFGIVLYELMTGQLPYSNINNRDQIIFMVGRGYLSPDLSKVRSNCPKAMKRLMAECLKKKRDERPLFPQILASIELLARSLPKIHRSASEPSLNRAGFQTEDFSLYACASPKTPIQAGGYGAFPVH
The source made the active and inactive calls.
The reply should name one outcome from active, inactive

Previously resolved entries follow.
# COMPOUND, CLASS_ASSIGNMENT
records = [
    ("Cc1cc(Nc2ncc(Cl)c(Nc3ccccc3S(=O)(=O)C(C)C)n2)c(OC(C)C)cc1C1CCNCC1 [CERITINIB]", "inactive"),
    ("C=CC(=O)Nc1cc2c(Nc3ccc(F)c(Cl)c3)ncnc2cc1C#CC(C)(C)N1CCN(C)CC1 [AV-412 FREE BASE]", "inactive"),
    ("CN1C/C=C/CCOc2cccc(c2)-c2ccnc(n2)Nc2cccc(c2)C1 [ZOTIRACICLIB]", "inactive"),
]

-- ask Write down the call the test reported for this compound. Item: COc1cc2ncnc(Oc3cccc(NC(=O)Nc4cc(C(C)(C)C(F)(F)F)on4)c3)c2cc1OC [CEP-32496]
-- reply active
